Tested on: SEM cells
assay.info: cell viability relative to DMSO control; higher = less cytotoxic
condition.set: HPLM + 10% dialyzed FBS; 48 h; 0.0632 µM
measurement.name: cell viability (%)
Give bare numbers, in %.

| compound | cell viability [%] |
| --- | --- |
| CC(C)(C#N)c1cc(Cn2cncn2)cc(C(C)(C)C#N)c1 | 111 |
| c1ccc(CCCN2CCN(CCOC(c3ccccc3)c3ccccc3)CC2)cc1 | 97.9 |
| CC[C@]12CC[C@H]3[C@@H](CCC/4=C/C(=O)CC[C@H]34)[C@@H]1\C=C/[C@@]2(O)C#C | 111 |
| OC[C@H]1O[C@H]([C@H](O)[C@@H]1O)N2\C=C/C(=O)NC2=O | 123 |
| CCOC(=O)c1ccc(OC(=O)CCCCCNC(=N)N)cc1 | 123 |

Dear reader, for each entry below, please note its cell viability.
1. CCOC(=O)N1CCN(/[N+]([O-])=N/Oc2ccc([N+](=O)[O-])cc2C#N)CC1
2. NC\1=N\C(=O)N(\C=C1)[C@@H]2O[C@H](CO)[C@@H](O)[C@@H]2O
3. COCC1(CO)C(=O)C2CCN1CC2 (stereo not given)
4. Nc1ncnc2c1ncn2[C@@H]1O[C@@H](CO)[C@H](O)[C@@H]1O
5. CC(C)C1NC(=O)C(NC(=O)C2=C3\N=C\4/C(=C(C)\C(=O)\C(=C4C(=O)NC5C(C)OC(=O)C(C(C)C)N(C)C(=O)CN(C)C(=O)C6CCCN6C(=O)C(NC5=O)C(C)C)N)OC3=C(C)C=C2)C(C)OC(=O)C(C(C)C)N(C)C(=O)CN(C)C(=O)C7CCCN7C1=O (stereo not given)

Return:
1. 120
2. 13.3
3. 96.3
4. 124
5. 5.33

----------
Field: cell viability. Provide a value for each of the compounds that follow.
Test system: P12-Ichikawa
assay.info: cell viability relative to DMSO control; higher = less cytotoxic
condition.set: HPLM + 10% dialyzed FBS; 48 h; 0.000781 µM
Give bare numbers, in %.

These solved cases illustrate the format of a correct answer.
| compound | measurement.name | measurement |
| --- | --- | --- |
| FC1=CC=C(C=C1)N2/C=C\C=C(C(=O)NC3=CC=C(OC4=C5C=C[NH]C5=NC=C4)C(=C3)F)/C2=O | cell viability | 99 |
| CC[C@]12CC[C@H]3[C@@H](CCC/4=C/C(=O)CC[C@H]34)[C@@H]1\C=C/[C@@]2(O)C#C | cell viability | 109 |
| c1ccc2[nH]c(-c3cscn3)nc2c1 | cell viability | 115 |
| C[C@]12CCC(=O)C=C1CC[C@@H]1[C@@H]2[C@@H](O)C[C@@]2(C)[C@H]1CC[C@]2(O)C(=O)CO | cell viability | 107 |
| CNC(=O)c1ccc2cc(C3(O)CCn4cncc43)ccc2c1 (centres undefined) | cell viability | 123 |

Dear reader, for each entry below, please note its cell viability.
1. N[S+]([O-])(=O)C1=C(Cl)C=C2\N=C/N[S+]([O-])(=O)C2=C1
2. O=C(O)CCC1CCC(c2cc(F)ccc2F)([S+](=O)([O-])c2ccc(Cl)cc2)CC1 (centres undefined)
3. COc1ccccc1OCC(O)COC(N)=O (centres undefined)
4. COC(=O)Nc1cc(Nc2cc(NC3CC3)c3ncc(C#N)n3n2)c(Cl)c(N2CCN(C)CC2)c1

Return:
1. 101
2. 105
3. 88.2
4. 107

----------
System: SEM cells
assay.info: cell viability relative to DMSO control; higher = less cytotoxic
condition.set: RPMI 5 mM glucose + 10% FBS; 48 h; 0.00702 µM
measurement.name: cell viability (%)
Numbers only, in %.

These solved cases illustrate the format of a correct answer.
| compound | cell viability, % |
| --- | --- |
| CCCCC(=O)O[C@]1(C(=O)CO)[C@H](C)C[C@H]2[C@@H]3CCC4=CC(=O)C=C[C@]4(C)[C@@]3(F)[C@@H](O)C[C@@]21C | 139 |
| C[C@@H](Oc1cc(-c2cnn(C3CCNCC3)c2)cnc1N)c1c(Cl)ccc(F)c1Cl | 85.6 |
| O=C(C=CC#Cc1cccc(N[S+](=O)([O-])c2ccccc2)c1)NO | 103 |
| Cc1onc(-c2ccccc2Cl)c1C(=O)N[C@@H]1C(=O)N2[C@@H]1SC(C)(C)[C@@H]2C(=O)[O-] | 117 |

Dear reader, for each entry below, please note its cell viability.
1. C[C@](O)(CS(=O)(=O)c1ccc(F)cc1)C(=O)Nc1ccc(C#N)c(C(F)(F)F)c1
2. CCN1CCN(CC1)CC(=O)NC2=CC=C(C3=C2C4=C(S3)C=CC=C4)C5=C6O\C(=C/C(=O)C6=CC=C5)N7CCOCC7

Return:
99.7
107

Dear reader, for each entry below, please note its cell viability.
1. CCOC(=O)N1CCN(/[N+]([O-])=N/Oc2ccc([N+](=O)[O-])cc2C#N)CC1
2. C[C@@]12C(=O)OC(=O)[C@@]1(C)C1CCC2O1
3. CC(C)C1NC(=O)C(NC(=O)C2=C3\N=C\4/C(=C(C)\C(=O)\C(=C4C(=O)NC5C(C)OC(=O)C(C(C)C)N(C)C(=O)CN(C)C(=O)C6CCCN6C(=O)C(NC5=O)C(C)C)N)OC3=C(C)C=C2)C(C)OC(=O)C(C(C)C)N(C)C(=O)CN(C)C(=O)C7CCCN7C1=O (stereo not drawn)
4. CCC1(c2ccccc2)C(=O)NCNC1=O
5. CC(C)c1ccc2c(c1)c(SC(C)(C)C)c(CC(C)(C)C(=O)[O-])n2Cc1ccc(Cl)cc1

Return:
1. 106
2. 112
3. 7.11
4. 108
5. 109

Dear reader, for each entry below, please note its cell viability.
1. CC(C)c1noc(N2CCC(COc3ccc(-c4ccc([S+](C)(=O)[O-])cc4)nc3)CC2)n1
2. Cc1ccccc1C(=O)c1ccc(Nc2ccc(Br)cc2N)cc1Cl

Return:
1. 140
2. 97.7

----------
Tested on: SEM cells
assay.info: cell viability relative to DMSO control; higher = less cytotoxic
condition.set: RPMI 5 mM glucose + 10% FBS; 48 h; 0.0632 µM
Field: cell viability. Provide a value for each of the compounds that follow.
Answers are plain numbers, in %.

These solved cases illustrate the format of a correct answer.
| compound | units.text | measurement |
| --- | --- | --- |
| CN1CCN(C2=Nc3cc(Cl)ccc3Nc3ccccc32)CC1 | % | 68.9 |
| CC(C)c1nc(CN(C)C(=O)N[C@H](C(=O)N[C@@H](Cc2ccccc2)C[C@H](O)[C@H](Cc2ccccc2)NC(=O)OCc2cncs2)C(C)C)cs1 | % | 90.7 |
| COCCOc1ccc2c(c1)ncn2-c1ccc2cccc(N3CCC(N)CC3)c2n1 | % | 58.7 |

Dear reader, for each entry below, please note its cell viability.
1. O=C(O)Cn1nnc(-c2cc(N3CCC(Oc4cc(F)ccc4Br)CC3)no2)n1
2. COc1cc(OC2CCN(C)CC2)ccc1Nc1ncc2c(n1)n(C1CCCC1)c(=O)n2C
3. CNC(=O)c1ccc(N2C(=S)N(c3cnc(C#N)c(C(F)(F)F)c3)C(=O)C23CCC3)cc1F
4. CCc1ccc(CCOc2ccc(CC3SC(=O)NC3=O)cc2)nc1 (configuration not stated)

Return:
[98, 99, 97.1, 85.6]

----------
Tested on: NOMO1
assay.info: cell viability relative to DMSO control; higher = less cytotoxic
condition.set: RPMI 5 mM glucose + 10% FBS; 48 h; 0.00702 µM
measurement.name: cell viability (%)
Give bare numbers, in %.

| compound | assay.target | measurement.name | measurement |
| --- | --- | --- | --- |
| N[S+]([O-])(=O)C1=CC=C(NC/2=C/C(=O)C3=CC=CC=C3C2=O)C=C1 | NOMO1 | cell viability | 131 |

Dear reader, for each entry below, please note its cell viability.
1. CCC[S+]([O-])c1ccc2[nH]c(NC(=O)OC)nc2c1 (stereo not drawn)
2. C[C@](O)(CS(=O)(=O)c1ccc(F)cc1)C(=O)Nc1ccc(C#N)c(C(F)(F)F)c1

Return:
94.2
128

----------
System: NOMO1
assay.info: cell viability relative to DMSO control; higher = less cytotoxic
condition.set: HPLM + 10% dialyzed FBS; 48 h; 15.4 µM
Field: cell viability. Provide a value for each of the molecules that follow.
Numbers only, in %.

These solved cases illustrate the format of a correct answer.
| molecule | units.text | measurement |
| --- | --- | --- |
| C[C@]12CCC(=O)C=C1CC[C@@H]1[C@@H]2[C@@H](O)C[C@@]2(C)[C@H]1CC[C@]2(O)C(=O)CO | % | 121 |
| COC(=O)Nc1cc(Nc2cc(NC3CC3)c3ncc(C#N)n3n2)c(Cl)c(N2CCN(C)CC2)c1 | % | 45.6 |
| CC[S+](=O)([O-])c1cccc(-c2cc(C(=O)NC3CCN(C)CC3)c(C)c3[nH]c4ncc(C)cc4c23)c1 | % | 51 |
| C[C@]12COC(=O)C[C@@H]1CC[C@@H]1[C@@H]2CC[C@@]2(C)[C@H]1CC[C@]2(C)O | % | 97.1 |
| CC1=C(C)C(=O)C(C(CCCCCC(=O)O)c2ccccc2)=C(C)C1=O (centres undefined) | % | 27.1 |

Dear reader, for each entry below, please note its cell viability.
1. CCOC(=O)c1ccc(OC(=O)CCCCCNC(=N)N)cc1
2. CC[C@H](/C=C/[C@@H](C)[C@H]1CC[C@H]2[C@@H]3CC=C4C[C@@H](O)CC[C@]4(C)[C@H]3CC[C@]12C)C(C)C
3. CN[C@@H](C)[C@H]1[C@H](O)C[C@@]2(C)[C@@H]3CC[C@H]4C(C)(C)[C@@H](NC)CC[C@@]45C[C@@]35CC[C@]12C
4. COc1ccccc1OCC(O)COC(N)=O (centres undefined)
5. Cc1onc(-c2ccccc2Cl)c1C(=O)N[C@@H]1C(=O)N2[C@@H]1SC(C)(C)[C@@H]2C(=O)[O-]

Return:
[62.4, 73.7, 105, 125, 105]

Dear reader, for each entry below, please note its cell viability.
1. CC(C)c1ccc2c(c1)c(SC(C)(C)C)c(CC(C)(C)C(=O)[O-])n2Cc1ccc(Cl)cc1
2. O=C(c1ccc(OCCN2CCCCC2)cc1)c1c(-c2ccc(O)cc2)sc2cc(O)ccc12
3. CCCCC(=O)O[C@]1(C(=O)CO)[C@H](C)C[C@H]2[C@@H]3CCC4=CC(=O)C=C[C@]4(C)[C@@]3(F)[C@@H](O)C[C@@]21C

Return:
95.1
126
123

Dear reader, for each entry below, please note its cell viability.
1. O=C(O)CCC1CCC(c2cc(F)ccc2F)([S+](=O)([O-])c2ccc(Cl)cc2)CC1 (centres undefined)
2. CCN1CCN(c2ccc(Nc3cc(N(C)C(=O)Nc4c(Cl)c(OC)cc(OC)c4Cl)ncn3)cc2)CC1
3. FC1=CC=C(C=C1)N2/C=C\C=C(C(=O)NC3=CC=C(OC4=C5C=C[NH]C5=NC=C4)C(=C3)F)/C2=O
4. O=C1c2ccccc2-[n+]2ccc3c([nH]c4ccccc43)c21
5. N[S+]([O-])(=O)C1=CC=C(NC/2=C/C(=O)C3=CC=CC=C3C2=O)C=C1
6. Clc1ccc(-c2nc3sccn3c2/C=N/OCc2ccc(Cl)c(Cl)c2)cc1

Return:
1. 35.4
2. 25.9
3. 122
4. 2.96
5. 100
6. 101

Dear reader, for each entry below, please note its cell viability.
1. C[C@](Cc1c[nH]c2ccccc12)(NC(=O)OC1C2CC3CC(C2)CC1C3)C(=O)NC[C@H](NC(=O)CCC(=O)O)c1ccccc1 (some centres undefined)
2. C[C@@H]1COCCN1c1cc(C2([S@+](C)(=N)[O-])CC2)nc(-c2ccnc3[nH]ccc23)n1
3. Cc1nn(Cc2ccccc2Cl)c(C)c1CN(C)CC(O)COc1ccc(Cl)cc1 (centres undefined)
4. C[S+](=O)([O-])Nc1ccc([N+](=O)[O-])cc1Oc1ccccc1
5. COC\1=C(/OC)C(=O)\C(=C(C)/C1=O)CCCCCCCCCCO

Return:
154
27.6
83.1
101
122
